Ref: patent US12600731B2

- target_under_test: CDK2/Cyclin A2 (Homo sapiens)
- protocol_description: Kinase activity assay, CDK2/Cyclin A2 (tested in a similar manner)
- study_conditions: tested in a similar manner to CDK4/cyclin D3
Rule: IC50 below 10 nM gives 1.0, anything at or above gives 0.0.

smiles_repr	label
COc1cc(N2CCN(C)CC2)ccc1Nc1ncc2ccc3onc(C(C)C)c3c2n1	0.0
CC(C)c1noc2ccc3cnc(Nc4ccc(N5CCNCC5)cc4)nc3c12	1.0
CC(C)c1noc2c1-c1nc(Nc3ccc(N4CCN(C)CC4)c(F)c3)ncc1CC2	0.0
CC(C)c1noc2ccc3cnc(Nc4ccc(N5CCOCC5)cc4F)nc3c12	0.0
CC(C)c1noc2ccc3cnc(Nc4ccc(C(=O)N5CCNCC5)cc4)nc3c12	1.0
CC(C)c1noc2ccc3cnc(Nc4ccc(N5CCC(CCCO)CC5)cc4)nc3c12	0.0
CC(C)c1noc2ccc3cnc(Nc4ccc(N5CCOCC5)c(F)c4)nc3c12	0.0
CC(C)c1noc2ccc3cnc(Nc4ccc(N5CCN(C)CC5)c(F)c4)nc3c12	0.0
COc1ccc2cc(Nc3ncc4ccc5onc(C(C)C)c5c4n3)ccc2n1	0.0
CCN1CCN(c2ccc(Nc3ncc4ccc5onc(C(C)C)c5c4n3)cc2)CC1	1.0
CC(C)c1noc2ccc3cnc(Nc4ccc(C(=O)N5CCN(C)CC5)cc4)nc3c12	1.0
CC(C)c1noc2ccc3cnc(Nc4ccc(N(CCN5CCOCC5)S(C)(=O)=O)cc4)nc3c12	0.0

###

- target_under_test: CDK6/Cyclin D3 (Homo sapiens)
- Sequence (Q00534 whole entry, species assumed): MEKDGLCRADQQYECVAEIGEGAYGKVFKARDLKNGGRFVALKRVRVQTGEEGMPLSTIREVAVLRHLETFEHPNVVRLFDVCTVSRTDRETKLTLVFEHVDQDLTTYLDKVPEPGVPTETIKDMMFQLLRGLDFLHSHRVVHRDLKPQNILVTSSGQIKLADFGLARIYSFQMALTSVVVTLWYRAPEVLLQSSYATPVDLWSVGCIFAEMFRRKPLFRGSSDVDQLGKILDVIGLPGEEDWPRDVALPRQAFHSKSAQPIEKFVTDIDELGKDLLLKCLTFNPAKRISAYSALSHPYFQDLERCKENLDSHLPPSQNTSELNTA
- Sequence (P30281 whole entry partner, species assumed): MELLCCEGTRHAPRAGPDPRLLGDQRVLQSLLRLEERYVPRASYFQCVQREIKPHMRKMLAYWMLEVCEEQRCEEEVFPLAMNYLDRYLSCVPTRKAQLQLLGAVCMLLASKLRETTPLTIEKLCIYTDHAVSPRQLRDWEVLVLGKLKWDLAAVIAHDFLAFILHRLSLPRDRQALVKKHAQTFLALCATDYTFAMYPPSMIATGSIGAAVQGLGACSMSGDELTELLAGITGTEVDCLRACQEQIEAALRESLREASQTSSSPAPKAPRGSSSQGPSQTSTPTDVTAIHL
- protocol_description: Kinase activity assay, CDK6/Cyclin D3 (tested in a similar manner)
- study_conditions: tested in a similar manner to CDK4/cyclin D3
Counter-ions that a name gives are not always drawn.
Rule: IC50 below 0.01 µM gives class 1, anything at or above gives class 0.

compound	label
CC(C)c1noc2ccc3cnc(Nc4ccc(N5CCNCC5)nn4)nc3c12 [Compound I-15]	class 0
CC(C)c1noc2c1-c1nc(Nc3ccc(N4CCN(C)CC4)c(F)c3)ncc1CC2 [Compound I-39]	class 0
CC(C)c1noc2c1-c1nc(Nc3ccc(N4CCNCC4)cn3)ncc1CC2 [Compound I-24, hydrochloride]	class 0
CCN1CCN(c2cnc(Nc3ncc4ccc5onc(C(C)C)c5c4n3)cc2C)CC1 [Compound I-6]	class 0
CC(C)c1noc2ccc3cnc(Nc4ccc(N5CCN(C)CC5)c(F)c4)nc3c12 [Compound I-34]	class 1
CC(C)c1noc2ccc3cnc(Nc4ccc(N(CCN5CCOCC5)S(C)(=O)=O)cc4)nc3c12 [Compound I-41]	class 1
CC(C)c1noc2ccc3cnc(Nc4ccc(C(=O)N5CCN(C)CC5)cc4)nc3c12 [Compound I-43]	class 1
CC(C)c1noc2ccc3cnc(Nc4ccc(N5CCNCC5)cn4)nc3c12 [Compound I-1, hydrochloride]	class 1
CN1CCN(c2ccc(Nc3ncc4ccc5onc(C6CCCC6)c5c4n3)nc2)CC1 [Compound I-23]	class 0
CC(C)c1noc2ccc3cnc(Nc4ccc(N5CCOCC5)cn4)nc3c12 [Compound I-8]	class 0
CCN1CCN(c2ccc(Nc3ncc4ccc5onc(C(C)C)c5c4n3)nc2)CC1 [Compound I-5]	class 1
CC(C)c1noc2ccc3cnc(Nc4ccc(C(=O)N5CCNCC5)cc4)nc3c12 [Compound I-42]	class 1
CC(C)c1noc2ccc3cnc(Nc4ccc(N5CCS(=O)(=O)CC5)cn4)nc3c12 [Compound I-17]	class 0
CCN1CCN(c2ccc(Nc3ncc4ccc5onc(CC(C)C)c5c4n3)nc2)CC1 [Compound I-20]	class 0
CC(C)c1noc2c1-c1nc(Nc3ccc(N4CCNCC4)c(F)c3)ncc1CC2 [Compound I-38]	class 0
CC(C)Cc1noc2ccc3cnc(Nc4ccc(N5CCN(C)CC5)cn4)nc3c12 [Compound I-19]	class 0
CC(C)c1noc2c1-c1nc(Nc3ccc(N4CCOCC4)cn3)ncc1CC2 [Compound I-26]	class 0
CCN1CCN(Cc2ccc(Nc3ncc4ccc5onc(C(C)C)c5c4n3)nc2)CC1 [Compound I-12]	class 0
CC(C)c1noc2ccc3cnc(Nc4ccc(N5CCNCC5)c(F)c4)nc3c12 [Compound I-33]	class 1
CC(C)c1noc2ccc3cnc(Nc4ccc(N5CCN(C)CC5)cn4)nc3c12 [Compound I-4]	class 1
CC(C)c1noc2ccc3cnc(Nc4ccc(N5CCC(N(C)C)CC5)cn4)nc3c12 [Compound I-13]	class 0
CCN1CCN(c2ccc(Nc3ncc4c(n3)-c3c(C(C)C)noc3CC4)nc2)CC1 [Compound I-25]	class 0
CC(C)c1noc2ccc3cnc(Nc4ccc(N5CCOCC5)cc4)nc3c12 [Compound I-29]	class 0
CC(C)c1noc2ccc3cnc(Nc4cccc(S(N)(=O)=O)c4)nc3c12 [Compound I-40]	class 1
COc1cc(N2CCN(C)CC2)ccc1Nc1ncc2ccc3onc(C(C)C)c3c2n1 [Compound I-31]	class 0
CC(C)Cc1noc2ccc3cnc(Nc4ccc(N5CCOCC5)cn4)nc3c12 [Compound I-21]	class 0
CC(C)CN1CCN(c2ccc(Nc3ncc4ccc5onc(C(C)C)c5c4n3)nc2)CC1 [Compound I-11]	class 0
CC(C)c1noc2ccc3cnc(Nc4ccc(N5CCN(C6CC6)CC5)cn4)nc3c12 [Compound I-10]	class 0
CC(C)c1noc2ccc3cnc(Nc4ccc(N5CCNCC5=O)cn4)nc3c12 [Compound I-16]	class 0
CCN1CCN(c2ccc(Nc3ncc4ccc5onc(C(C)C)c5c4n3)nc2C)CC1 [Compound I-7]	class 0
CC(C)c1noc2ccc3cnc(Nc4ccc(OCCN(C)C)cc4)nc3c12 [Compound I-44]	class 1
CC(C)c1noc2ccc3cnc(Nc4ccc(N5CCNCC5)cc4)nc3c12 [Compound I-27]	class 1
CCN1CCN(c2ccc(Nc3ncc4ccc5onc(C(C)C)c5c4n3)cc2F)CC1 [Compound I-35]	class 1
CC(C)Cc1noc2ccc3cnc(Nc4ccc(N5CCNCC5)cn4)nc3c12 [Compound I-18]	class 0
CC(C)c1noc2ccc3cnc(Nc4ccc(N5CCC(CCCO)CC5)cc4)nc3c12 [Compound I-30]	class 0
